All values here come from the supplement of paper PMC10567573.

B1: SMG5 (parent)
chain: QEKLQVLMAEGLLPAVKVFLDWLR

# Variants of: B1
# experimentalProtocol: protein stability index of a GFP-peptide fusion (GPS, HEK-293T) (PSI 1-6); higher = more stable;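 note: lentivirally expressed fusions sorted by FACS into six bins by GFP to DsRed ratio, PSI derived from sequencing read proportions per bin multiplied by bin number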
# testParameters: c terminus: a fixed tail appended
Rule: protein stability index under 2 gives No, otherwise Yes.

Here are 2 variants together with their reported answers.
1. E2F
Yes
2. L12D
Yes

# check: protein stability index of P14A is greater than or equal to 2 Yes

# check: protein stability index of R24G is greater than or equal to 2 No

# check: protein stability index of R24H is greater than or equal to 2 Yes
